Measured melting point by item

Answered examples (4):
[[record]]
compound = "COCC(F)(F)CN1CCN(C(=O)c2cc3c(cc2C)[nH]c(=O)c2cnn(C4CCOCC4)c23)CC1"
assayendpoint = "melting point"
reading = "212 to 213 °C"

[[record]]
compound = "CCN1CCN(C(=O)c2cc3c(cc2C)[nH]c(=O)c2cnn(C4CCOCC4)c23)CC1c1cccnc1 (centres unmarked)"
assayendpoint = "melting point"
reading = "272 to 274 °C"

[[record]]
compound = "COCCCCN1CCN(C(=O)c2cc3c(cc2C)[nH]c(=O)c2cnn(C4CCOCC4)c23)CC1.Cl"
assayendpoint = "melting point"
reading = "240 to 242 °C"

[[record]]
compound = "O=C(c1ccc2c(c1)[nH]c(=O)c1cnn(C3CCCC3)c12)N1CCc2cc(Cl)ccc21"
assayendpoint = "melting point"
reading = "291 to 294 °C"


Q. Would you mind telling me what melting point value was observed for "COCCN1CCN(C(=O)c2cc3c(cc2C)[nH]c(=O)c2cnn(C4CCOCC4)c23)C[C@@H]1c1ccccc1" ?
A. 218 to 220 °C

====

Measured melting point by item

[[record]]
compound = "Cc1cc2[nH]c(=O)c3cnn(C4CCOCC4)c3c2cc1C(=O)N1CCC(OC[C@H](C)F)CC1 [Example 95]"
reading = "209 to 210 °C"

[[record]]
compound = "Cc1cc2[nH]c(=O)c3cnn(C4CCOCC4)c3c2cc1C(=O)N1CCC(OCC2CC2)CC1 [Example 41]"
reading = "206 to 208 °C"

[[record]]
compound = "Cc1cc2[nH]c(=O)c3cnn(C4CCOCC4)c3c2cc1C(=O)N1CCC(Oc2ccccn2)CC1 [Example 22]"
reading = "250 to 253 °C"


Q. Would you mind telling me what melting point value was observed for Cc1cc2[nH]c(=O)c3cnn(C4CCOCC4)c3c2cc1C(=O)N1CCN(CCC(F)(F)F)CC1.Cl [Example 128] ?
A. 174 to 176 °C

Q. Would you mind telling me what melting point value was observed for Cc1cc2[nH]c(=O)c3cnn(C4CCOCC4)c3c2cc1C(=O)N1CCC(OC[C@@H](C)F)CC1 [Example 177] ?
A. 205 to 206 °C

Q. Would you mind telling me what melting point value was observed for Cc1cc2[nH]c(=O)c3cnn(C4CCOCC4)c3c2cc1C(=O)N1CCN(CCCOC(C)C)CC1 [Example 64] ?
A. 122 to 124 °C

Q. Would you mind telling me what melting point value was observed for Cc1cc2[nH]c(=O)c3cnn(C4CCOCC4)c3c2cc1C(=O)N1CCN(CCCc2cccnc2)CC1 [Example 57] ?
A. 254 to 256 °C

Q. Would you mind telling me what melting point value was observed for COCC1CCN(C(=O)c2cc3c(cc2C)[nH]c(=O)c2cnn(C4CCOCC4)c23)CC1.Cl [Example 28] ?
A. 253 to 255 °C

Q. Would you mind telling me what melting point value was observed for CCOCC1CN(C(=O)c2cc3c(cc2C)[nH]c(=O)c2cnn(C4CCOCC4)c23)C1 [Example 86] ?
A. 226 to 228 °C

Reference for the values: patent US8822448B2
